The entries below are paired with their reported IC50.
Molecular target: MMP-12 (Homo sapiens, UniProt P39900)
Construct: catalytic domain(^100Phe˜^263Gly) was amplified with RT-PCR; His-tag; enterokinase digestion-site; made in house; host or cells: Escherichia coli
Sequence (P39900 100-263): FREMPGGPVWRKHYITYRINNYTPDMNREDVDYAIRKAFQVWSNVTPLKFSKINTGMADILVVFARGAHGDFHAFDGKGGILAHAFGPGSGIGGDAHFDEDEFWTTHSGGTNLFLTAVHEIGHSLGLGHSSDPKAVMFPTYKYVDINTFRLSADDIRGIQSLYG
Test: Assay for inhibitory activities on MMPs (fluorogenic peptide substrate), MMP-12
Assay type: biochemical
Conditions: catalytic domain 100Phe-263Gly; substrate MOCAc-Pro-Leu-Gly-Leu-A2Pr(DNP)-Ala-Arg-NH2
Report only the number, with the unit nM understood.

Reference set, count: 5
[
  {
    "Query smiles": "CC(C)[C@@H](NS(=O)(=O)c1ccc(-c2ncc(-c3ccc4ccccc4c3)o2)cc1)C(=O)O",
    "Value observed": 0.699
  },
  {
    "Query smiles": "C[C@@H](NS(=O)(=O)c1ccc(-c2ncc(-c3ccc(Br)cc3)o2)cc1)C(=O)O",
    "Value observed": 2.42
  },
  {
    "Query smiles": "CC(C)[C@@H](NS(=O)(=O)c1ccc(-c2ncc(-c3ccc(Br)cc3)s2)cc1)C(=O)O",
    "Value observed": 0.643
  },
  {
    "Query smiles": "CSCC[C@@H](NS(=O)(=O)c1ccc(-c2ncc(-c3ccc(Cl)cc3)s2)cc1)C(=O)O",
    "Value observed": 1.08
  },
  {
    "Query smiles": "COc1ccc(-c2cnc(-c3ccc(S(=O)(=O)N[C@H](CC(C)C)C(=O)O)cc3)o2)cc1",
    "Value observed": 5.05
  }
]

Any idea what its IC50 is? The compound is CSCC[C@@H](NS(=O)(=O)c1ccc(-c2ncc(-c3ccccc3)s2)cc1)C(=O)O 2.66

Any idea what its IC50 is? The compound is COc1ccc(-c2cnc(-c3ccc(S(=O)(=O)N[C@H](C)C(=O)O)cc3)o2)cc1 2.78
